# System: Zymoseptoria tritici
# Test: Test C: wheat leaf blotch control on wheat seedlings
# Type: in vivo
# Assay conditions: 250 ppm; wheat seedlings; 100 = 100% disease control, 0 = no control
// label = MET if Test C disease control rating is not less than 40%, otherwise NOT MET

Examples with answers:
Quick check: does COc1ccnc(C(=O)N[C@@H](C)C(=O)OC(C)c2cccc(-c3ccccc3)c2)c1O (single isomer, unassigned) [Compound 4] have Test C disease control rating greater than or equal to 40%?
NOT MET

Could you do the same for CCC(OC(=O)[C@H](C)NC(=O)c1nccc(OC)c1OCOC(=O)C(C)C)c1ccc(C2CCCCC2)cc1 (single isomer, unassigned) [Compound 132] , please?
NOT MET

Could you do the same for COc1ccnc(C(=O)NC(C)C(=O)OC(C)c2ccc(C(F)(F)F)cc2)c1O (mixture of isomers) , please?
MET

Could you do the same for COc1ccnc(C(=O)N[C@@H](C)C(=O)OC(C)c2ccc(F)cc2Cc2ccccc2)c1O (single isomer, unassigned) [Compound 23] , please?
MET

Could you do the same for COc1ccnc(C(=O)N[C@@H](C)C(=O)OC(C)c2ccc(C3CCCCC3)cc2)c1OC(C)=O (single isomer, unassigned) , please?
MET

Could you do the same for COc1ccnc(C(=O)NC(C)C(=O)OC(C)c2ccc(C#N)cc2)c1O (mixture of isomers) , please?
NOT MET

Others:
Quick check: does COc1ccnc(C(=O)NC(C)C(=O)OC(C)c2ccc(F)cc2Oc2ccc(F)cc2)c1O (mixture of isomers) have Test C disease control rating greater than or equal to 40%?
MET

Could you do the same for COc1ccnc(C(=O)NC(C)C(=O)OC(C)C2CCC(C(C)(C)C)CC2)c1OC(C)=O (mixture of isomers) , please?
MET

Could you do the same for COc1ccnc(C(=O)NC(C)C(=O)OC(C)C2CCC(c3ccccc3)CC2)c1O (mixture of isomers) , please?
MET

Could you do the same for COc1ccnc(C(=O)NC(C)C(=O)OC(C)C2CCCCC2)c1O (mixture of isomers) , please?
NOT MET

Could you do the same for COc1ccnc(C(=O)N[C@@H](C)C(=O)OC(C2CCCCC2)C2CCCCC2)c1OC(C)=O , please?
MET

Could you do the same for COc1ccnc(C(=O)NC(C)C(=O)OC(C)c2cccc(-n3ccc(C(F)(F)F)n3)c2)c1O (mixture of isomers) , please?
MET

###

# Test system: Zymoseptoria tritici
# Test: Test C: wheat leaf blotch control on wheat seedlings
# Assay type: in vivo
# Assay conditions: 250 ppm; wheat seedlings; 100 = 100% disease control, 0 = no control
Quantity measured: Test C disease control rating (%)
Only the number, expressed in %, is required.

Below, 8 compounds whose answers are already recorded.
Request the reported Test C disease control rating associated with COc1ccnc(C(=O)N[C@@H](C)C(=O)OC(C)c2ccccc2Cc2ccc(F)cc2)c1OC(C)=O (single isomer, unassigned) [Compound 22]
85

Could you do the same for COc1ccnc(C(=O)NC(C)C(=O)N(C)C(C)c2ccc(C3CCCCC3)cc2)c1O (mixture of isomers) [Compound 98] , please?
59

Could you do the same for COc1ccnc(C(=O)NC(C)C(=O)OC(C)C2CCC(C)(C)CC2)c1O (mixture of isomers) [Compound 173] , please?
66

Could you do the same for COc1ccnc(C(=O)N[C@@H](C)C(=O)OC(C)c2ccc(F)cc2Cc2ccc(F)cc2)c1OC(C)=O (single isomer, unassigned) [Compound 58] , please?
86

Could you do the same for COc1ccnc(C(=O)N[C@@H](C)C(=O)OC(C)c2ccccc2Oc2ccccc2)c1OC(C)=O (single isomer, unassigned) [Compound 107] , please?
87

Could you do the same for CCOC(=O)c1ccn(-c2ccc(C(C)OC(=O)C(C)NC(=O)c3nccc(OC)c3OC(C)=O)cc2)n1 (mixture of isomers) [Compound 48] , please?
8

Could you do the same for COc1ccnc(C(=O)NC(C)C(=O)OC(C)c2ccc(F)cc2Cc2ccccc2)c1O (mixture of isomers) [Compound 12] , please?
0

Could you do the same for COc1ccnc(C(=O)N[C@@H](C)C(=O)OC(C)c2ccc(C3CCCCC3)cc2)c1OCOC(C)=O (single isomer, unassigned) [Compound 146] , please?
91

Others:
Request the reported Test C disease control rating associated with COc1ccnc(C(=O)NC(C)C(=O)OC(C)c2ccccc2-n2ccc(C(F)(F)F)n2)c1OC(C)=O (mixture of isomers) [Compound 25]
17

Could you do the same for CCC(OC(=O)[C@H](C)NC(=O)c1nccc(OC)c1OCOC(C)=O)c1ccc(C2CCCCC2)cc1 (single isomer, unassigned) [Compound 134] , please?
64

Could you do the same for CC(NC(=O)c1cccc(NC=O)c1O)C(=O)OC(C)c1ccc(C2CCCCC2)cc1 (mixture of isomers) [Compound 97] , please?
99

Could you do the same for COc1ccnc(C(=O)NC(C)C(=O)OC(C)c2ccccc2Oc2ccc(F)cc2)c1OC(C)=O (mixture of isomers) [Compound 61] , please?
0

Could you do the same for COc1ccnc(C(=O)N[C@@H](C)C(=O)OC(C)c2ccc(C3CCCCC3)cc2)c1OCOC(C)=O (single isomer, unassigned) [Compound 147] , please?
95

Taken from patent US20230131966A1.
